target: pooled human IgG (human IgG1,2,3 and 4)
assay.endpoint: Enzyme Activity Endpoint Assay: scIgG (ng/µL)
Give the value in ng/µL but do not write ng/µL after it.

PRT-267 (protein) MVTSVWTKGVTPPTDFIYGEDVLHAPYKAGQGWYDITKTFNGKDDLLCGAATAGNMLHWWFDQNKEQIENYLKKHPEKQKINFNGEQMFDVKEAIDTKDSQLDSKLFDYFKEKAFPNLSTKHLGVFPDHVIDMFINGYRLSLLNHGPTPVKRGSKDPRGGIFDAVFTRGDQSKLLTNRHDLKNKTLKEISDLIKQELTEGKALGISHTYANVRINHVINLWGADFDAEGNLEAIYVTDSDSNPSIGMKKYFVGVNSSGKVAISAKEIEEDNIGAQVLGLFTLSTGQDIWNQTN    0

[in] Report Enzyme Activity Endpoint Assay: scIgG for PRT-506 (protein) MITSVWTKGVTPPTDFIKGEDVFHAPYKAGQGWYDITKTFNGKDDLLCGAATAGNMLHWWFDQNKEEIEAYLKKHPEKQKIMFGDQELLDVRKVINTKDSQTNSALFNYFKDKAFPNLSARRLGVMPDLVLDMFINGYYLNVYKTQTTDVNRTYQTKDRRGGIFDAVFTRGDQSKLLTERHDFKEKTLKEISDLIKQELTEGKALGLSHTYANVRINHVINLWGADFDSNGNLEAIYVTDSDSNASIGMKKYFVGVNSAGKVAISAKEIKEDNIGAQVLGLFTLSTGQDIWNQTNLEHHHHHH please.
[out] 0

[in] Report Enzyme Activity Endpoint Assay: scIgG for PRT-275 (protein) MVTSVWTKGVTPPTDFIYGEDVLHAPYKAGQGWYDITKLFNGKDNLLCGAATAGNMLHWWFDQNKEQIENYLKKHPEKQKIIFNNQELFDLKAAIDTKDSQLDSKLFDYFKEKAFPNLSTKHLGVFPDHVIDMFINGYRLSLLNHGPTPVKRGSKDKRGGIFDAVFTRGVQSKLLTNRHDLKNKTLKEISDLIKQELTEGKALGISHTYANGRINHVINLWGADFDAEGNLEAIYVTDSDTNPSIGMKKYFVGVNSSGKVAISAKEIEEDNIGAQVLGLFTLSTGQDIWNQTN please.
[out] 589

[in] Report Enzyme Activity Endpoint Assay: scIgG for PRT-193 (protein) MANQEIRYSEVTPYHVTSVWTKGVTPPANFTQGEDVFHAPYVANQGWYDITKTFNGKDDLLCGAATAGNMLHWWFDQNKDQIKRYLEEHPEKQKINFNGEQMFDVKEAIDTKNHQLDSKLFEYFKEKAFPYLSTKHLGVFPDHVIDMFINGYRLSLTNHGPTPVKEGSKDPRGGIFDAVFTRGDQSKLLTSRHDFKEKNLKEISDLIKKELTEGKALGLSHTYANVRINHVINLWGADFDSNGNLKAIYVTDSDDKKLTIGDERIGMKKYFVGVNSAGKVAISAKEIKEDNIGAQVLGLFTLSTGQDSWNQTN please.
[out] 355

[in] Report Enzyme Activity Endpoint Assay: scIgG for PRT-332 (protein) MTITSVWTKGVTPPTPEDFRENNEDVLHAPYVANQGWYDITKTFDGKDNLLCGAATAGNMLHWWFDQNKEEIERYLKKHPEKQKIIFNNQEWFDVKAAIDTKDSQTNSKLFNYFRDKAFPGLSARQLGVFPDLVLDMFINGYYLNLPKTQSTDVNRPYQDKDKRGGIFDAVFTRGVQTTLLTARHDLKNKGLNEISDLIKQELTEGKALALSHTYANVRINHVINLWGADFDAEGNLIAIYVTDSDANASIGMKKYAVGVNANGKVAISAKKIEGDNIGAQVLGLFTLSTGQDIWQKLS please.
[out] 177

[in] Report Enzyme Activity Endpoint Assay: scIgG for PRT-309 (protein) MQITSVWTKGVTPLTPEQFRENNEDVIHAPYLAHQGWYDITKAFDGKDNLLCGAATAGNMLHWWFDQNKTEIEAYLSKHPEKQKIIFGNQELFDLKAAIDTKDSQTNSQLFDYFRDKAFPNLSARQLGVMPDLVLDMFINGYYLNVGKTQSTDVNRPYQDKDKRGGIFDAVFTRGDQTTLLTARHDLKNKGLNDISTIIKQELTEGRALALSHTYANVSISHVINLWGADFDAEGNLEAIYVTDSDANASIGMKKYFVGRNAHGHVAISAKKIEGENIGAQVLGLFTLSSGKDQWQKLS please.
[out] 0

[in] Report Enzyme Activity Endpoint Assay: scIgG for PRT-110 (protein) MRNATEAYAKEVPHQITSVWTKGVTPPTPEQFRYNNEDVFHAPYTAHQGWYDITKTFDGKDNLLCGAATAGNMLHWWFDQNKTEIEAYLSKHPEKQKIIFNNQELFDLKAAIDTKDSQTNSALFNYFRDKAFPNLSARQLGVMPDLVLDMFINGYYLNVFKTQSTDVNRPYQDKDKRGGIFDAVFTRGDQTTLLTARHDLKNKTLNDISTIIKQELTEGRALALSHTYANVSISHVINLWGADFNAEGNLEAIYVTDSDSNASIGMKKYFVGVNASGKVAISAKKIEGENIGAQVLGLFTLSSGKDIWQKLS please.
[out] 0

[in] Report Enzyme Activity Endpoint Assay: scIgG for PRT-108 (protein) MRNATEAYAKEVPHQITSVWTKGVTPPTPEQFRYNNEDVIHAPYTAHQGWYDITKTFDGKDNLLCGAATAGNMLHWWFDQNKTEIEAYLSKHPEKQKIIFNNQELFDLKAAIDTKDSQTNSQLFNYFRDKAFPNLSARQLGVMPDLVLDMFINGYYLNVFKTQSTDVNRPYQDKDKRGGIFDAVFTRGDQTTLLTARHDLKNKGLNDISTLIKQELTEGRALALSHTYANVSISHVINLWGADFNAEGNLEAIYVTDSDANASIGMKKYFVGINAAGHVAISAKKIEGENIGAQVLGLFTLSSGKDIWQKLS please.
[out] 0

Ref: patent US20250027068
